- study.system: NU223612/IDO1/CRBN ternary complex (Homo sapiens, UniProt P14902+Q96SW2)
- Sequence (P14902 whole entry): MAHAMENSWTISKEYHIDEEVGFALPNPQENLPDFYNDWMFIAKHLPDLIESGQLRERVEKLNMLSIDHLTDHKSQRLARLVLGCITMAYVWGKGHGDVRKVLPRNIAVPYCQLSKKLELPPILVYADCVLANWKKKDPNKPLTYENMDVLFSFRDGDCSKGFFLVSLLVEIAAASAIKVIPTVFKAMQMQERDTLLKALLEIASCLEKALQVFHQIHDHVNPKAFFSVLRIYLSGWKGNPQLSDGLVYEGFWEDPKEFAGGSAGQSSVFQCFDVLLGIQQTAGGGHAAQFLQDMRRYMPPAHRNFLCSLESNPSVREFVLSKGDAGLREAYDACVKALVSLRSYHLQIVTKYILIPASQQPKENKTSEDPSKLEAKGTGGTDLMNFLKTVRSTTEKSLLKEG
- Sequence (Q96SW2 whole entry): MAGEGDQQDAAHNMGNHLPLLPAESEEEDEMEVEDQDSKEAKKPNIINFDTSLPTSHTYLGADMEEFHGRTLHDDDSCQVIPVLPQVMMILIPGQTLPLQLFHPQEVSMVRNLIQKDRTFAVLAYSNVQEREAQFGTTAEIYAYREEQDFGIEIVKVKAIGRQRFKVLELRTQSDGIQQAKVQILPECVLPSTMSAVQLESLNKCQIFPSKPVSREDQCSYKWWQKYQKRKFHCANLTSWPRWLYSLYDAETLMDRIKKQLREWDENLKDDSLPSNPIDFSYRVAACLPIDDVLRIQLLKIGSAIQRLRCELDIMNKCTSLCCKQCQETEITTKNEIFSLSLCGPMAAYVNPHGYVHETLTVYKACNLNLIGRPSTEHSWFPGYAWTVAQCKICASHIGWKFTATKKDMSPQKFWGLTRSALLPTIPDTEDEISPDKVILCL
- assay.details: BLI of NU223612 pre-incubated with CRBN binding to IDO1
measured.property: Kd

>>> result("C[C@@H](C(=O)Nc1ccc(OC2CCN(C(=O)CCOCCOCCNc3cccc4c3C(=O)N(C3CCC(=O)NC3=O)C4=O)CC2)cc1)[C@H]1CC[C@@H](c2ccnc3ccc(F)cc32)CC1 (stereo partly shown)")
"0.117 µM"
